system: NET (Homo sapiens, UniProt P23975)
Sequence (P23975 whole entry): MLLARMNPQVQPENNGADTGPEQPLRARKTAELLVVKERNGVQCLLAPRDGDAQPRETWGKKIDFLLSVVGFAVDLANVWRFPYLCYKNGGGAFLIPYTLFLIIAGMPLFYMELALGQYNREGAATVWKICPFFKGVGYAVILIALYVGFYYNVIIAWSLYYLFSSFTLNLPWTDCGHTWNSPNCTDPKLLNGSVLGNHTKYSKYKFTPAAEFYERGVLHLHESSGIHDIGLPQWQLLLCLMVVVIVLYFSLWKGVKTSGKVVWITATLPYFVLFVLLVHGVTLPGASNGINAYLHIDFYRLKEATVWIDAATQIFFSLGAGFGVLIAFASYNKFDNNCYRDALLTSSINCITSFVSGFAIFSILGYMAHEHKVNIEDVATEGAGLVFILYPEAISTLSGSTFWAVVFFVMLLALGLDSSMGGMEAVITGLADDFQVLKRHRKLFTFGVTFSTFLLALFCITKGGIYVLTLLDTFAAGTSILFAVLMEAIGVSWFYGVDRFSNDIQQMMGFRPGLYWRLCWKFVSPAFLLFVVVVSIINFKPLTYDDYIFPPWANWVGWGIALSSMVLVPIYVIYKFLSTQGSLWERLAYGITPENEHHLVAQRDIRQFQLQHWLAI
assay-procedure: Safety47 Transporter NET
test-conditions: Blocker, read-out: RC50 (IC50)
pIC50: −log10 of the molar value.
readout-kind: pIC50

Cl.c1ccc2c(Nc3ccc4[nH]ccc4c3)nc(-c3ccncc3)nc2c1 | < 5.00
Cl.Fc1cc(Nc2nc(-c3ccncc3)nc3ncccc23)cc2cc[nH]c12 | < 5.00

* * *

system: UniProt:P25101
Sequence (P25101 21-427): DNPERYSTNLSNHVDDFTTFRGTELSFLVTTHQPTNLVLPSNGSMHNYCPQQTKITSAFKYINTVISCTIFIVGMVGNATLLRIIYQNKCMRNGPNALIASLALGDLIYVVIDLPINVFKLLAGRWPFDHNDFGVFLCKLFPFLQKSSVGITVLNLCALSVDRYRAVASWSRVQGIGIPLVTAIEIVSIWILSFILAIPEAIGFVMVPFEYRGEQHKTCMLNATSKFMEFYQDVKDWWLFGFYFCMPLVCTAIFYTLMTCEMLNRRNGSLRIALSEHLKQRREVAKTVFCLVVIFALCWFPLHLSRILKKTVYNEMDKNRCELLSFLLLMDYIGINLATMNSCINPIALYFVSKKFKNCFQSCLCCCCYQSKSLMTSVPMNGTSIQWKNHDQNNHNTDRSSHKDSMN
assay-procedure: Safety47 Calcium Flux EDNRA
test-conditions: Antagonist, read-out: RC50 (IC50)
Here, each record is paired with measured IC50 data.
readout-kind: IC50

Cl.Fc1cc(Nc2nc(-c3ccncc3)nc3ncccc23)cc2cc[nH]c12 | > 10 µM
Cl.c1ccc2c(Nc3ccc4[nH]ccc4c3)nc(-c3ccncc3)nc2c1 | > 10 µM

* * *

system: CHRM1 (Homo sapiens, UniProt P11229)
Sequence (P11229 1-460): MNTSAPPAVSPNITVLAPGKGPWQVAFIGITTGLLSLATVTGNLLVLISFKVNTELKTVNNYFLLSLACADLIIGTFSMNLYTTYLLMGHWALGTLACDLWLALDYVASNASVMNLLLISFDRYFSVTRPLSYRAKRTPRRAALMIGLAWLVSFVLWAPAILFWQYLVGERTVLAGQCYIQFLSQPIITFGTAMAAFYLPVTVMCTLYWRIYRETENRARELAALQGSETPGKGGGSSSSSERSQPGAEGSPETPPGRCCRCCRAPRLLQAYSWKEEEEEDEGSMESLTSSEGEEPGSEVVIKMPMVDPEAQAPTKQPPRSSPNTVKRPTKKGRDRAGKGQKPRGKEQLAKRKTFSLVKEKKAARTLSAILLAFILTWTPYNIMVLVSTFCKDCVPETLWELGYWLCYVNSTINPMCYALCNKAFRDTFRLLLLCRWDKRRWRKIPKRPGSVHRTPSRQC
assay-procedure: Safety47 Calcium Flux CHRM1
test-conditions: Antagonist, read-out: RC50 (IC50)
pIC50: −log10 of the molar value.
readout-kind: pIC50

Cl.c1ccc2c(Nc3ccc4[nH]ccc4c3)nc(-c3ccncc3)nc2c1 | < 5.00
Cl.Fc1cc(Nc2nc(-c3ccncc3)nc3ncccc23)cc2cc[nH]c12 | < 5.00

* * *

system: SERT (Homo sapiens)
Sequence (P31645 whole entry): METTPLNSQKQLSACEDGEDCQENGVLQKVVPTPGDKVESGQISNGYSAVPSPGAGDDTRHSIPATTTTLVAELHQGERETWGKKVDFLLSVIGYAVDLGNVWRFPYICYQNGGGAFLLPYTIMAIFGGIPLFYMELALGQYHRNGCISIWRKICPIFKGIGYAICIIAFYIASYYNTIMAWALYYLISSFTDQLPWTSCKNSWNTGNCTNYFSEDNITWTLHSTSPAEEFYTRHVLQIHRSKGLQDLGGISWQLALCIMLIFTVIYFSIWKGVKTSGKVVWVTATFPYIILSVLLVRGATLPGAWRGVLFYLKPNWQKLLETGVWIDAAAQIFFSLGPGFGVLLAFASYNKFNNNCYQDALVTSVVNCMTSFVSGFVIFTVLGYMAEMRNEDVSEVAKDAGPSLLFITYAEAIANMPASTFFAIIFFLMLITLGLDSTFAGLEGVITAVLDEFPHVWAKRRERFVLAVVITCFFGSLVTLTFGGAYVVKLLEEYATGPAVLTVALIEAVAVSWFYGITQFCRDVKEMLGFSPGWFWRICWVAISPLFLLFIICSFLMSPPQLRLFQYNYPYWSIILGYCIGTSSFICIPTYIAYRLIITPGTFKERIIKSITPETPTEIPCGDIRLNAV
assay-procedure: Safety47 Transporter SERT
test-conditions: Blocker, read-out: RC50 (IC50)
Here, each record is paired with measured IC50 data.
readout-kind: IC50

Cl.c1ccc2c(Nc3ccc4[nH]ccc4c3)nc(-c3ccncc3)nc2c1 [BC18630] | > 10 µM
Cl.Fc1cc(Nc2nc(-c3ccncc3)nc3ncccc23)cc2cc[nH]c12 [BC18813] | > 10 µM

* * *

Here, each record is paired with measured EC50 data.
system: OPRM1 (Homo sapiens)
Construct: purchased Eurofins Panlab (Safety47 Safety Scan, contract panel)
Sequence (P35372 whole entry, species assumed): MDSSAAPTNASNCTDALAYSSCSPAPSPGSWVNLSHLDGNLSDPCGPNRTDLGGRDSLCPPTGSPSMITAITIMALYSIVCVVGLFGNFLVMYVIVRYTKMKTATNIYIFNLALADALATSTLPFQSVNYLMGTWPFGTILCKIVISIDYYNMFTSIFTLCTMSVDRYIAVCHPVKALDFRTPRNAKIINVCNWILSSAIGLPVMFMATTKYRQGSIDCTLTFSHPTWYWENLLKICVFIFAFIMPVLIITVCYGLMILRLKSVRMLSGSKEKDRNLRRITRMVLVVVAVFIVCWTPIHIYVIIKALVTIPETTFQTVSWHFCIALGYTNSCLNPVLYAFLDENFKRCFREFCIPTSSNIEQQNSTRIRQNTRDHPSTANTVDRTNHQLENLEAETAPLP
assay-procedure: Safety47 cAMP OPRM1
Assay type: cell-based
test-conditions: cAMP, Agonist; read-out: RC50 (EC50)
readout-kind: EC50

Cl.c1ccc2c(Nc3ccc4[nH]ccc4c3)nc(-c3ccncc3)nc2c1 | > 10 µM
Cl.Fc1cc(Nc2nc(-c3ccncc3)nc3ncccc23)cc2cc[nH]c12 | > 10 µM

* * *

system: OPRK1 (Homo sapiens, UniProt P41145)
Sequence (P41145 whole entry, species assumed): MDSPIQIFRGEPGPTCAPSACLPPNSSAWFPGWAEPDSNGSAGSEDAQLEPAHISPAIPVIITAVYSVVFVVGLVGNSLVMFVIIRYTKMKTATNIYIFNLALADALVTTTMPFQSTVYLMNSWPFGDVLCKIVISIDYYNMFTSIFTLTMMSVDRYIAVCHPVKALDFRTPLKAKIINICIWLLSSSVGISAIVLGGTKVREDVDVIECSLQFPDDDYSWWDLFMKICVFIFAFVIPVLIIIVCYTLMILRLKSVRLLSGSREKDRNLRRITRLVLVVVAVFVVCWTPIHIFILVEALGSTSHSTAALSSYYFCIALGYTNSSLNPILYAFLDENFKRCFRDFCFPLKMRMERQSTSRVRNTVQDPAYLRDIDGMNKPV
assay-procedure: Safety47 cAMP OPRK1
test-conditions: Agonist, read-out: RC50 (EC50)
pEC50: −log10 of the molar value.
Here, each record is paired with measured pEC50 data.
readout-kind: pEC50

Cl.c1ccc2c(Nc3ccc4[nH]ccc4c3)nc(-c3ccncc3)nc2c1 | < 5.00
Cl.Fc1cc(Nc2nc(-c3ccncc3)nc3ncccc23)cc2cc[nH]c12 | < 5.00
